molecules and their reported pIC50
target or test system: cellular PARG (Homo sapiens)
Construct: endogenous in cells
procedure details: Nuclear PAR accumulation assay (immunofluorescence high-content imaging)
condition info: HeLa cells, 1 hour compound treatment then MMS 50 μg/mL for an additional hour
pIC50: −log10 of the molar value.

| molecule | pIC50 |
| --- | --- |
| [2H]C([2H])(c1sc(C)nc1C)N1C(=O)c2cc(S(=O)(=O)NC3(C)CC3)c(F)cc2N2C1=NC[C@H]2C [Example 113] | ≥ 7.00 |
| C#C[C@@H]1CN=C2N(CC)C(=O)c3cc(S(=O)(=O)NC4(C)CC4)ccc3N21 [Example 28] | 6.00 to 7.00 |
| Cn1cc(CN2C(=O)c3cc(S(=O)(=O)NC4(C)CC4)ccc3N3C2=NCC32COC2)cn1 [Example 105] | 6.00 to 7.00 |
| [2H]C([2H])(c1cnc(C)s1)N1C(=O)c2cc(S(=O)(=O)NC3(C)CC3)ccc2N2C1=NC[C@H]2C [Example 63] | ≥ 7.00 |
| Cn1cc(CN2C(=O)c3cc(S(=O)(=O)NC4(C)CC4)ccc3N3CC(C)(C)N=C23)cn1 [Example 64] | ≥ 7.00 |
| Cc1ncc(CN2C(=O)c3cc(S(=O)(=O)NC4(C)CC4)ccc3N3C2=NC[C@H]3C(C)C)s1 [Example 20] | ≥ 7.00 |
| Cc1noc(C)c1CN1C(=O)c2cc(S(=O)(=O)NC3(C)CC3)ccc2N2C1=NC[C@H]2C(C)C [Example 67] | ≥ 7.00 |
| C[C@@H]1CCN=C2N(Cc3cnn(C)c3)C(=O)c3cc(S(=O)(=O)NC4(C)CC4)ccc3N21 [Example 76] | ≥ 7.00 |
| C[C@@H]1CN=C2N(Cc3cn(C)nc3C(F)(F)F)C(=O)c3cc(S(=O)(=O)NC4(C)CC4)ccc3N21 [Example 55] | ≥ 7.00 |

* * *

target or test system: cellular PARG (Homo sapiens)
Construct: endogenous in cells
procedure details: Nuclear PAR accumulation assay (immunofluorescence high-content imaging)
condition info: HeLa cells, 1 hour compound treatment then MMS 50 μg/mL for an additional hour
pIC50: −log10 of the molar value.
measure name: pIC50

| line notation | observed result |
| --- | --- |
| [2H]C([2H])(c1cnn(C)c1)N1C(=O)c2cc(S(=O)(=O)NC3(C)CC3)cc(Br)c2N2C1=NC[C@H]2C | ≥ 7.00 |
| CN(C)C[C@@H]1CN=C2N(Cc3cnn(C)c3)C(=O)c3cc(S(=O)(=O)NC4(C)CC4)ccc3N21 | ≥ 7.00 |
| C[C@@H]1CN=C2N1c1ccc(S(=O)(=O)NC3(C)CC3)cc1C(=O)N2C1(c2cnn(C)c2)CC1 | 5.00 to 6.00 |
| C#CCN1C(=O)c2cc(S(=O)(=O)NC3(C)CC3)ccc2N2C1=NC[C@H]2C | ≥ 7.00 |
| C[C@@H]1CN=C2N(Cc3cnn(C)c3)C(=O)c3cc(S(=O)(=O)NC4(C)CC4)cc(C4=CCOCC4)c3N21 | ≥ 7.00 |
| Cn1cc(CN2C(=O)c3cc(S(=O)(=O)NC4(C)CC4)ccc3N3CC4(CCC4)N=C23)cn1 | ≥ 7.00 |
| Cc1nc(C)c([C@@H]2CN=C3N(CC4CC4)C(=O)c4cc(S(=O)(=O)NC5(C)CC5)ccc4N32)s1 | 6.00 to 7.00 |

* * *

target or test system: cellular PARG (Homo sapiens, UniProt Q86W56)
Construct: endogenous in cells; host or cells: HeLa
Sequence (Q86W56 whole entry): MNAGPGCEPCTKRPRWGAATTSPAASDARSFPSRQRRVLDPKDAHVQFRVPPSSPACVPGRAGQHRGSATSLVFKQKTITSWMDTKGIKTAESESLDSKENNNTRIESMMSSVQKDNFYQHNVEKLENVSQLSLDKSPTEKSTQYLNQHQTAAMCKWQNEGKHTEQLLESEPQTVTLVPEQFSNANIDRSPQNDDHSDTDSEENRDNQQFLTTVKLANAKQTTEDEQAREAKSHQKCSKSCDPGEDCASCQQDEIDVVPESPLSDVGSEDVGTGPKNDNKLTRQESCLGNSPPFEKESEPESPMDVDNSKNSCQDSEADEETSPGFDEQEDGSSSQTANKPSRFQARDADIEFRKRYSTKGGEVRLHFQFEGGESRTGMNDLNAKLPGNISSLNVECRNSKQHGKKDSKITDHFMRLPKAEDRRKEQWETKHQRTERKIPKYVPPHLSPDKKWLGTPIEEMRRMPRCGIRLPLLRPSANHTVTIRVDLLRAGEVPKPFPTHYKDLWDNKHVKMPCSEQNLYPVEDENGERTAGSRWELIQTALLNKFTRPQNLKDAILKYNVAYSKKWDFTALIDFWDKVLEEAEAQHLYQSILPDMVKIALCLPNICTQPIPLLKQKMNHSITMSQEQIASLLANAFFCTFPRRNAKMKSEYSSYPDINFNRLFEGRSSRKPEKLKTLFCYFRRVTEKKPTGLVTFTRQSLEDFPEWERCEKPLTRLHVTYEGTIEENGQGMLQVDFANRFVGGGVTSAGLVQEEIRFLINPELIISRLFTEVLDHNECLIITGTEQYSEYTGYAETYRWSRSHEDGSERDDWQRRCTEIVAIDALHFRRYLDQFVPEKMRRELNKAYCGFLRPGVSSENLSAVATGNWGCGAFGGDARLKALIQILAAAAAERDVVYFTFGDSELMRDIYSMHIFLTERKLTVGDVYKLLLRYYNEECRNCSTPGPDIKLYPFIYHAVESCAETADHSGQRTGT
procedure details: Nuclear PAR accumulation assay (immunofluorescence high-content imaging)
Type: cell-based
condition info: HeLa cells, 1 hour compound treatment then MMS 50 μg/mL for an additional hour
measure name: IC50

| compound | target or test system | observed result |
| --- | --- | --- |
| Cc1noc(C)c1CN1C(=O)c2cc(S(=O)(=O)NC3(C)CC3)ccc2N2C1=NC[C@@H]2C1CC1 [Example 70] | cellular PARG (Homo sapiens, UniProt Q86W56) | 100 to 1000 nM |
| Cc1cc(CN2C(=O)c3cc(S(=O)(=O)NC4(C)CC4)ccc3N3C2=NC[C@H]3C)n[nH]1 [Example 5] | cellular PARG (Homo sapiens, UniProt Q86W56) | 100 to 1000 nM |
| C[C@@H]1CN=C2N(C)C(=O)c3cc(S(=O)(=O)NC4(C)CC4)ccc3N21 [Example 52] | cellular PARG (Homo sapiens, UniProt Q86W56) | 100 to 1000 nM |
| C#C[C@H]1CN=C2N(CC)C(=O)c3cc(S(=O)(=O)NC4(C)CC4)ccc3N21 [Example 27] | cellular PARG (Homo sapiens, UniProt Q86W56) | 1000 to 10000 nM |
| CC[C@H]1CN=C2N(Cc3c(C)noc3C)C(=O)c3cc(S(=O)(=O)NC4(C)CC4)ccc3N21 [Example 13] | cellular PARG (Homo sapiens, UniProt Q86W56) | 1000 to 10000 nM |
| C[C@@H]1CN2C(=N1)N(Cc1cnn(C)c1)C(=O)c1cc(S(=O)(=O)NC3(C)CC3)ccc12 [Example 107] | cellular PARG (Homo sapiens, UniProt Q86W56) | 100 to 1000 nM |
| [2H]C([2H])(c1cnn(C)c1)N1C(=O)c2cc(S(=O)(=O)NC3(C)CC3)cc(Cl)c2N2C1=NC[C@H]2C [Example 128] | cellular PARG (Homo sapiens, UniProt Q86W56) | ≤ 100 nM |
| Cc1ncc(CN2C(=O)c3cc(S(=O)(=O)NC4(C)CC4)ccc3N3C2=NC[C@H]3C)s1 [Example 31] | cellular PARG (Homo sapiens, UniProt Q86W56) | ≤ 100 nM |
| Cc1nn(C)cc1CN1C(=O)c2cc(S(=O)(=O)NC3(C)CC3)ccc2N2C1=NC[C@H]2C [Example 80] | cellular PARG (Homo sapiens, UniProt Q86W56) | ≤ 100 nM |
| C[C@@H]1CN=C2N(Cc3cn(C)nn3)C(=O)c3cc(S(=O)(=O)NC4(C)CC4)ccc3N21 [Example 90] | cellular PARG (Homo sapiens, UniProt Q86W56) | 100 to 1000 nM |
| C[C@@H]1CN=C2N(Cc3cnn(CCN(C)C)c3)C(=O)c3cc(S(=O)(=O)NC4(C)CC4)ccc3N21 [Example 53] | cellular PARG (Homo sapiens, UniProt Q86W56) | 100 to 1000 nM |
| Cn1cc(CN2C(=O)c3cc(S(=O)(=O)NC4(C)CC4)ccc3N3C2=NC[C@@H]3C2CC2)cn1 [Example 36] | cellular PARG (Homo sapiens, UniProt Q86W56) | 100 to 1000 nM |
| C[C@@H]1CN=C2N(Cc3cnn(C)c3)C(=O)c3cc(S(=O)(=O)NC4(C)CC4)cc(-c4ccc(F)cc4)c3N21 [Example 136] | cellular PARG (Homo sapiens, UniProt Q86W56) | ≤ 100 nM |
| COCC1(C)CN2C(=N1)N(Cc1cnn(C)c1)C(=O)c1cc(S(=O)(=O)NC3(C)CC3)ccc12 (centres unmarked) [Example 127] | cellular PARG (Homo sapiens, UniProt Q86W56) | 100 to 1000 nM |

Entry source: patent US12435092B2
